Listed here: items and their measured TGI.
test system: CCRF-CEM leukemia; experiment: NCI tumour cell line growth inhibition, 48 h

# TGI (compound: O=CNC(Cc1cnc[nH]1)C(=O)O (stereo unspecified) ) is > 100 µM

***
# TGI (compound: `Cc1cccc(CNc2c3ccccc3nc3ccccc23)c1` ) is 15 µM

# TGI (compound: `N=c1oc2cc(O)ccc2cc1C(=O)Nc1ccccn1` ) is 94.2 µM

# TGI (compound: `Cc1cc(NS(=O)(=O)c2ccc(NC(=O)c3ccc(Cl)c4c(Nc5ccc(S(=O)(=O)Nc6cc(C)on6)cc5)c5ccccc5nc34)cc2)no1` ) is 51.8 µM

# TGI (compound: `CS(=O)(=O)OCCN(CCOS(C)(=O)=O)c1ccc(C=Nc2ccc(-c3csc(Cc4ccccc4)n3)cc2)c(Cl)c1` ) is > 61.2 µM

# TGI (compound: `O=C1OC(c2ccc([N+](=O)[O-])cc2)=N/C1=C\c1ccc(Cl)cc1` ) is > 100 µM

Source listed as PubChem BioAssay (NCI).
